- assay comment: RPL19A-GFP modulators, yeast TOR pathway, confirmation, cell-based, S. cerevisiae, flow cytometry, cherry picks, mother/daughter gates (AID 2270)
- applied conditions: S. cerevisiae RPL19A-GFP strain, 3 h, at 10 µM, active compounds read low, 100 = same GFP as DMSO wells
measured parameter: GFP response vs DMSO (%)
Write the answer as a number in %, unit excluded.

Please review the entries below; each comes with its answer.
[
  {
    "molecule": "CCCc1[nH]nc2c1C(c1cccnc1)C(C#N)=C(N)O2 (configuration not stated)",
    "unit abbreviation": "%",
    "GFP response vs DMSO": 98.6
  },
  {
    "molecule": "Cc1c(NC2=C(Cl)C(=O)N(c3ccccc3Cl)C2=O)c(=O)n(-c2ccccc2)n1C",
    "unit abbreviation": "%",
    "GFP response vs DMSO": 94.7
  },
  {
    "molecule": "CCOC(=O)c1ccccc1NC(=O)c1c(O)c2ccccc2n(CC)c1=O",
    "unit abbreviation": "%",
    "GFP response vs DMSO": 95.6
  }
]

Briefly, GFP response vs DMSO measured for `CC1CCN(S(=O)(=O)c2cccc(C(=O)Nc3nccs3)c2)CC1` : 101

Briefly, GFP response vs DMSO measured for `O=C(NCc1ccc2c(c1)OCO2)c1nc(S(=O)(=O)Cc2ccccc2)ncc1Cl` : 97.8

Briefly, GFP response vs DMSO measured for `COc1cc(/C=C2\C(=O)ON=C2c2ccc(Cl)cc2)ccc1O` : 105

Briefly, GFP response vs DMSO measured for `CC(C)c1ccc(C(=O)N/N=C/c2cccc(Cl)c2Cl)cc1` : 93.4

Briefly, GFP response vs DMSO measured for `CN(C(=O)c1cccnc1)c1nc(-c2ccccc2)cs1` : 97.6

Briefly, GFP response vs DMSO measured for `N#C/C(=C\c1c(N2CCCCCC2)nc2ccccn2c1=O)C(=O)NCc1ccco1` : 96

Briefly, GFP response vs DMSO measured for `O=[N+]([O-])c1cc(Cl)ccc1Sc1ccccn1` : 104

Briefly, GFP response vs DMSO measured for `CCOC(=O)c1ccc(NC(=O)c2ccc3c(c2)C(=O)N(Cc2cccnc2)C3=O)cc1` : 100

Briefly, GFP response vs DMSO measured for O=C1C2C3C=CC(CO)(O3)C2C(=O)N1c1ccccc1-c1ccccc1 (configuration not stated) : 113

Briefly, GFP response vs DMSO measured for CCOC(=O)C1CCCN(c2nc3c(C)cccn3c(=O)c2/C=C(\C#N)C(=O)NCc2ccco2)C1 (configuration not stated) : 102

Briefly, GFP response vs DMSO measured for `CCC(=O)Oc1oc(-c2ccccc2)nc1C=Nc1ccc(C)cc1` : 103

Briefly, GFP response vs DMSO measured for `O=C(NCCCSc1ccccc1)c1cc(Br)ccc1O` : 97.8

Briefly, GFP response vs DMSO measured for `CCCCn1c(=O)c(C(=O)OCC)c(O)c2ccccc21` : 106

Briefly, GFP response vs DMSO measured for CCNC(=O)/C(C#N)=C/c1c(N2CC(C)OC(C)C2)nc2ccccn2c1=O (configuration not stated) : 97.8

Briefly, GFP response vs DMSO measured for `CCN(CC)CCCN(Cc1cc2cc3c(cc2[nH]c1=O)OCO3)C(=S)Nc1ccccc1` : 87.4

* * *

- assay comment: superoxide lowering in aged yeast cells, pilot screen, validation compound set (AID 2706);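 also: yeast exposed to compound for one week at 30 degrees C before staining; 100% = mean of all compound wells on the same plate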
- applied conditions: S. cerevisiae aging, superoxide DHE fluorescence; at 10 µM, active compounds read low
measured parameter: superoxide response (% of plate) (%)
Write the answer as a number in %, unit excluded.

Please review the entries below; each comes with its answer.
[
  {
    "compound": "O=C1CCCCCN1Cc1ccccc1",
    "superoxide response (% of plate) [%]": 97.2
  },
  {
    "compound": "O=C1OC(c2ccc(O)cc2)(c2ccc(O)cc2)c2ccccc21",
    "superoxide response (% of plate) [%]": 99.3
  },
  {
    "compound": "C=CCc1cccc2cc(C(=O)Nc3ccc(CC(=O)O)cc3)c(=O)oc12",
    "superoxide response (% of plate) [%]": 141
  }
]

Briefly, superoxide response (% of plate) measured for `COc1ccc2c(c1)c(CC(=O)O)c(C)n2C(=O)c1ccc(Cl)cc1` : 109

Briefly, superoxide response (% of plate) measured for `Oc1ccc(/C=C/c2cc(O)cc(O)c2)cc1` : 96.3

* * *

- assay comment: modulators of LAP4-GFP expression in yeast, primary screen, S. cerevisiae, multiplex flow cytometry (AID 1873)
- applied conditions: 3 h, at 10 µM, active compounds read high
Results filed as inconclusive are left out.
Threshold check on GFP response vs DMSO: at or above 90% gives 1 (yes), strictly below gives 0 (no).

Solved cases (8 shown):
[
  {
    "molecule": "CCS(=O)(=O)CCn1c([N+](=O)[O-])cnc1C",
    "qualitative label": "1 (yes)"
  },
  {
    "molecule": "Cc1cc(-c2nn(-c3ccccc3F)cc2CN2CCC(O)CC2)c(C)s1",
    "qualitative label": "1 (yes)"
  },
  {
    "molecule": "O=C(O)c1ccccc1O",
    "qualitative label": "1 (yes)"
  },
  {
    "molecule": "CCOc1cc(C)cc2oc(=O)cc(-c3ccccc3)c12",
    "qualitative label": "1 (yes)"
  },
  {
    "molecule": "Nc1nc2ccc(OC(F)(F)F)cc2s1",
    "qualitative label": "1 (yes)"
  },
  {
    "molecule": "COc1cc2c(cc1OC)-c1cc(OCc3ccccc3Cl)nc(=O)n1CC2",
    "qualitative label": "1 (yes)"
  },
  {
    "molecule": "Nc1cccc(C(=O)O)c1",
    "qualitative label": "0 (no)"
  },
  {
    "molecule": "COc1ccc(CCN(C)CCCC(C#N)(c2ccc(OC)c(OC)c2)C(C)C)cc1OC (stereo not drawn)",
    "qualitative label": "1 (yes)"
  }
]

Check the entry `COc1ccc(C2C(=O)c3ccccc3C2=O)cc1` : does GFP response vs DMSO equal or exceed 90%?
1 (yes)

Check the entry `O=C(NNC(=O)c1cccs1)c1ccco1` : does GFP response vs DMSO equal or exceed 90%?
1 (yes)

Check the entry CC1(C)NC(C(=O)O)Cc2c1[nH]c1ccccc21 (stereo not drawn) : does GFP response vs DMSO equal or exceed 90%?
1 (yes)

Check the entry `CC(C)[N+](C)(CCOC(=O)C1c2ccccc2Oc2ccccc21)C(C)C` : does GFP response vs DMSO equal or exceed 90%?
0 (no)

* * *

- assay comment: modulators of CIT2-GFP expression in yeast, confirmation, S. cerevisiae, GFP fusion, cherry picks, mother/daughter gates (AID 2274)
- applied conditions: S. cerevisiae CIT2-GFP strain, flow cytometry, 3 h; at 10 µM; active compounds read high
measured parameter: GFP response, % of DMSO (%)
Write the answer as a number in %, unit excluded.

[
  {
    "compound": "COc1ccc(NC(=O)Nc2ccon2)c(OC)c1",
    "unit abbreviation": "%",
    "reported value": 103
  }
]

Briefly, GFP response, % of DMSO measured for `Cc1ccc(Nc2c(-c3ccccn3)nc3ccc(C)cn23)cc1` : 105

Briefly, GFP response, % of DMSO measured for O=[N+]([O-])c1ccc(N2N=C(c3ccco3)CC2c2ccccc2)cc1 (stereo unspecified) : 105

Briefly, GFP response, % of DMSO measured for `O=C1c2ccsc2SCCN1Cc1ccccc1Cl` : 93

Briefly, GFP response, % of DMSO measured for `O=[N+]([O-])c1cc(O)c2ncccc2c1` : 122

Briefly, GFP response, % of DMSO measured for `CCOc1ccccc1-c1noc(CCC(=O)Nc2cccnc2)n1` : 110

* * *

- assay comment: modulators of MEP2-GFP levels in yeast, confirmation, S. cerevisiae, flow cytometry GFP, cherry picks (AID 2272);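 also: ratio of well signal to plate DMSO mean so 100% equals DMSO level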
- applied conditions: S. cerevisiae MEP2-GFP strain, 3 h, at 10 µM, active compounds read high
measured parameter: GFP response vs DMSO (%)
Write the answer as a number in %, unit excluded.

Please review the entries below; each comes with its answer.
[
  {
    "chemical smiles": "Cc1ccc(-c2nc3ccccn3c2NC(=O)c2ccco2)cc1",
    "measured parameter": "GFP response vs DMSO",
    "reported value": 101
  },
  {
    "chemical smiles": "Cc1cc(NCCN2CCOCC2)n2nc(C)c(-c3ccccc3)c2n1",
    "measured parameter": "GFP response vs DMSO",
    "reported value": 102
  },
  {
    "chemical smiles": "O=C(/C=C/c1ccc(F)cc1)NC(=S)NNC(=O)c1cnccn1",
    "measured parameter": "GFP response vs DMSO",
    "reported value": 132
  },
  {
    "chemical smiles": "COC(=O)/C(=C/c1c[nH]c2ccccc12)[N+](=O)[O-]",
    "measured parameter": "GFP response vs DMSO",
    "reported value": 111
  },
  {
    "chemical smiles": "Cc1ccc(S(=O)(=O)N(CC(=O)Nc2cccnc2)c2ccccc2C)cc1",
    "measured parameter": "GFP response vs DMSO",
    "reported value": 105
  },
  {
    "chemical smiles": "O=C1C(Cl)=C(N2CCN(Cc3ccccc3)CC2)C(=O)N1c1ccccc1",
    "measured parameter": "GFP response vs DMSO",
    "reported value": 100
  },
  {
    "chemical smiles": "Oc1c(Br)cc(Br)cc1C=Nc1cccc2ncccc12",
    "measured parameter": "GFP response vs DMSO",
    "reported value": 103
  },
  {
    "chemical smiles": "COc1ccc(OC(=O)c2cccc(S(=O)(=O)N3CCCC3)c2)cc1",
    "measured parameter": "GFP response vs DMSO",
    "reported value": 105
  },
  {
    "chemical smiles": "CNC(=O)/C(C#N)=C/c1c(N(Cc2ccccc2)Cc2ccccc2)nc2c(C)cccn2c1=O",
    "measured parameter": "GFP response vs DMSO",
    "reported value": 112
  },
  {
    "chemical smiles": "COc1ccc(CC(=O)NCc2ccccn2)cc1OC",
    "measured parameter": "GFP response vs DMSO",
    "reported value": 100
  }
]

Briefly, GFP response vs DMSO measured for `Cc1cc(O)c(C(=O)/C=C/c2cccc([N+](=O)[O-])c2)c(=O)o1` : 110

Every entry's value here was drawn from PubChem BioAssay.
